# assay_details: Inhibition of Hh receptor (unknown origin) expressed in SAG-stimulated mouse NIH3T3 cells incubated for 24 hrs by Gli-luciferase reporter gene assay
# Assay type: cell-based
# study_conditions: NIH3T3, 24 h
measure_name: pIC50
In textbook form, pIC50 equals minus log to base ten of the concentration in mol/L.

pIC50 measured on Cn1c(-c2cc(N3CCc4sc(C(=O)N5CCOCC5)cc4C3)ccc2Cl)nc2ccccc21 = 7.22

pIC50 measured on Cn1c(-c2cc(N3CCc4sc(C(=O)N5CCN(c6ncccn6)CC5)cc4C3)ccc2Cl)nc2ccccc21 = 7.05

pIC50 measured on CNC(=O)c1cc2c(s1)CCN(c1cccc(-c3nc4ccccc4n3C)c1)C2 = 5.85

pIC50 measured on Cn1c(-c2cccc(N3CCc4sc(C(=O)N5CCN(c6ccccn6)CC5)cc4C3)c2)nc2ccccc21 = 6.47

pIC50 measured on Cn1c(-c2cccc(N3CCc4sc(C(=O)Nc5cccnc5)cc4C3)c2)nc2ccccc21 = 6.70

Cited source for all entries: ChEMBL document CHEMBL3817828
